molecular target: RPA32_(172–270), the previously reported RPA32C construct of the replication protein A 32 kDa subunit (UniProt P15927 172-270); experiment: ITC
Sequence (P15927 172-270): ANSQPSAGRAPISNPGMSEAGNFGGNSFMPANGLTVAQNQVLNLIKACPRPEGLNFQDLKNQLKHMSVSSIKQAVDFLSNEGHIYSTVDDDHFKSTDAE
Metric name: pKd
Answer as the number alone; pKd is minus log10 of concentration in mol/L.

Query block: Name the recorded pKd for MSLPLTEEQRKKIEENRQKALARRAEKLLAEQ (peptide, UniProt Q9NZC9 1-32, looked up) [SMARCAL1_(1–32), SMARCAL1 residues 1–32 containing the RPA binding motif (RBM)] .
Result block: 5.60
